system: HL-60; assay: 72 h MTT cell viability HL-60; assay type: cell-based; details: Homo sapiens
pIC50: −log10 of the molar value.
Classify by measured pIC50: Y if it is equal to or exceeds 6, N if it is smaller.

{"COMPOUND": "CCn1cc(-c2ccnc(Nc3cccc(C#N)c3)n2)c2cccnc21 [Compound 20]", "EXPERIMENTAL SYSTEM": "HL-60", "CLASS LABEL": "N"}
{"COMPOUND": "CCCn1cc(-c2ccnc(Nc3ccc(S(N)(=O)=O)cc3)n2)c2ccncc21 [Compound 112]", "EXPERIMENTAL SYSTEM": "HL-60", "CLASS LABEL": "Y"}
{"COMPOUND": "CCn1cc(-c2ccnc(Nc3cccc(S(N)(=O)=O)c3)n2)c2ccnc(Cl)c21 [Compound 73]", "EXPERIMENTAL SYSTEM": "HL-60", "CLASS LABEL": "Y"}
{"COMPOUND": "CCCn1cc(-c2ccnc(Nc3ccc(C)c(S(=O)(=O)N4CCOCC4)c3)n2)c2ccncc21 [Compound 102]", "EXPERIMENTAL SYSTEM": "HL-60", "CLASS LABEL": "Y"}
{"COMPOUND": "CCCn1cc(-c2ccnc(Nc3cccc(S(N)(=O)=O)c3)n2)c2ccnc(Cl)c21 [Compound 96]", "EXPERIMENTAL SYSTEM": "HL-60", "CLASS LABEL": "Y"}
{"COMPOUND": "CCCn1cc(-c2ccnc(Nc3ccc(C)c(S(=O)(=O)N4CCOCC4)c3)n2)c2cccnc21 [Compound 24]", "EXPERIMENTAL SYSTEM": "HL-60", "CLASS LABEL": "N"}
{"COMPOUND": "CCCn1cc(-c2ccnc(Nc3cccc(S(N)(=O)=O)c3)n2)c2cccnc21 [Compound 22]", "EXPERIMENTAL SYSTEM": "HL-60", "CLASS LABEL": "N"}

###

experiment: Pharmacokinetic determination, rat IV/PO study; type: in vivo; settings: male, Sprague-Dawley, plasma, IV (5 mg/kg)

{"ITEM SMILES": "CCn1cc(-c2ccnc(Nc3cccc(S(N)(=O)=O)c3)n2)c2cccnc21", "SCALE UNIT": "min", "Tmax": 4.98}

###

target: CDK2/cyclinA (Homo sapiens); construct: purchased Invitrogen PV3267; test: Z'-LYTE kinase assay CDK2/cyclinA; format: biochemical; settings: Table III; read-out: Target biochemical activity IC50 CDK2
Assign labels as follows, please: rule met for IC50 below 30 nM; rule not met for IC50 equal to or exceeding 30 nM.

{"ITEM SMILES": "CCCn1cc(-c2ccnc(Nc3cccc(S(N)(=O)=O)c3)n2)c2nc(Cl)cc(C)c21", "CLASS LABEL": "rule not met"}
{"ITEM SMILES": "CCCn1cc(-c2ccnc(Nc3cccc(S(N)(=O)=O)c3)n2)c2ccncc21", "CLASS LABEL": "rule met"}
{"ITEM SMILES": "CCn1cc(-c2ccnc(Nc3ccc(O)cc3)n2)c2ccnc(Cl)c21", "CLASS LABEL": "rule met"}
{"ITEM SMILES": "CCn1cc(-c2ccnc(Nc3cccc(S(N)(=O)=O)c3)n2)c2cccnc21", "CLASS LABEL": "rule met"}
{"ITEM SMILES": "CCCn1cc(-c2ccnc(Nc3ccc(S(N)(=O)=O)cc3)n2)c2nc(Cl)cc(C)c21", "CLASS LABEL": "rule not met"}

###

target: CDK5/p35 (Homo sapiens); construct: purchased Invitrogen PV3000; test: Z'-LYTE kinase assay CDK5/p35; type: biochemical; details: Table III; read-out: Target biochemical activity IC50 CDK5
Sequence (Q00535 whole entry): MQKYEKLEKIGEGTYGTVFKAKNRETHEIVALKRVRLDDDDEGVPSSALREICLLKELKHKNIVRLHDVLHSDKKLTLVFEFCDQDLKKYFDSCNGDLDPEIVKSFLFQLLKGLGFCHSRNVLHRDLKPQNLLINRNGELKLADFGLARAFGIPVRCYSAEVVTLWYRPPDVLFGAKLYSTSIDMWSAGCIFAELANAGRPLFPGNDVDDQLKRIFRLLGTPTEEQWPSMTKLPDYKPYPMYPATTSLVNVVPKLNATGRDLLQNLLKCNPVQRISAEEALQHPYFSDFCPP
Sequence (Q15078 whole entry partner): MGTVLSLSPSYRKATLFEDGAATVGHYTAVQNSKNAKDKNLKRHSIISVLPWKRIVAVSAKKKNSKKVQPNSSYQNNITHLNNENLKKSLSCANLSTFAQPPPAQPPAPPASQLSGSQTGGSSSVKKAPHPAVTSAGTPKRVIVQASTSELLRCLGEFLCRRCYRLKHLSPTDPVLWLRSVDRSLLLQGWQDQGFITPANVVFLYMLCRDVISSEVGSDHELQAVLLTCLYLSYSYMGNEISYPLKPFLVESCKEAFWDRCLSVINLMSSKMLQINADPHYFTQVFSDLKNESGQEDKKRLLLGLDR
pIC50: −log10 of the molar value.
PARAMETER MEASURED: pIC50

{"ITEM SMILES": "CCCn1cc(-c2ccnc(Nc3cccc(S(N)(=O)=O)c3)n2)c2nc(Cl)cc(C)c21", "CMP": "<", "MEASURED": 5.00}
{"ITEM SMILES": "CCCn1cc(-c2ccnc(Nc3cccc(S(N)(=O)=O)c3)n2)c2ccncc21", "CMP": "=", "MEASURED": 9.30}
{"ITEM SMILES": "CCn1cc(-c2ccnc(Nc3ccc(O)cc3)n2)c2ccnc(Cl)c21", "CMP": "=", "MEASURED": 6.46}
{"ITEM SMILES": "CCCn1cc(-c2ccnc(Nc3ccc(C)c(S(=O)(=O)N4CCOCC4)c3)n2)c2ccncc21", "CMP": "=", "MEASURED": 7.60}
{"ITEM SMILES": "CCCn1cc(-c2ccnc(Nc3ccc(S(N)(=O)=O)cc3)n2)c2nc(Cl)cc(C)c21", "CMP": "<", "MEASURED": 5.00}
{"ITEM SMILES": "CCn1cc(-c2ccnc(Nc3cccc(S(N)(=O)=O)c3)n2)c2cccnc21", "CMP": "=", "MEASURED": 6.57}

###

molecular target: CDK1/cyclinB (Homo sapiens); construct: purchased Invitrogen PV3292; experiment: Z'-LYTE kinase assay CDK1/cyclinB; assay type: biochemical; details: Table III; read-out: Target biochemical activity IC50 CDK1
Sequence (P06493 whole entry): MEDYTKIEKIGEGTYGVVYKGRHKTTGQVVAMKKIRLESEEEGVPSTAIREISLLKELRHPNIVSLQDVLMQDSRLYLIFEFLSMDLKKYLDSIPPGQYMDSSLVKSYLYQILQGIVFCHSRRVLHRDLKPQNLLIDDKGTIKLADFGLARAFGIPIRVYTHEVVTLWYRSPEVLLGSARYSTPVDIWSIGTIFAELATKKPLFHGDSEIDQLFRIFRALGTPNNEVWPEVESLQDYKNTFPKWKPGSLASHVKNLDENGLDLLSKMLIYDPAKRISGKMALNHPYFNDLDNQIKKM
Sequence (P14635 whole entry partner): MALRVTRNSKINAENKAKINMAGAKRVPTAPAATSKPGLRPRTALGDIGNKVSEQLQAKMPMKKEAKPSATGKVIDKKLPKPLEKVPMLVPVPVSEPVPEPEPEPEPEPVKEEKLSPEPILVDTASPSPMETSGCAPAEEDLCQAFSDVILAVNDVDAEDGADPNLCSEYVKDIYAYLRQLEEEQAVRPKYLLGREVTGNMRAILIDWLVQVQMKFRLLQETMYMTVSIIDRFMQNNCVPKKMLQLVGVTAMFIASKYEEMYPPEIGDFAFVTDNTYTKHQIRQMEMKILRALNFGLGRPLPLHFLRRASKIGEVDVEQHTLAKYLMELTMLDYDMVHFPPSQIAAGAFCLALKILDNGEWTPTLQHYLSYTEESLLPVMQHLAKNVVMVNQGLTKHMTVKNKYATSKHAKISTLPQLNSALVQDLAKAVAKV
The following compounds are shown together with reported IC50 values.

{"ITEM SMILES": "CCCn1cc(-c2ccnc(Nc3cccc(S(N)(=O)=O)c3)n2)c2nc(Cl)cc(C)c21", "IC50": "6840 nM"}
{"ITEM SMILES": "CCn1cc(-c2ccnc(Nc3cccc(S(N)(=O)=O)c3)n2)c2cccnc21", "IC50": "624 nM"}
{"ITEM SMILES": "CCCn1cc(-c2ccnc(Nc3cccc(S(N)(=O)=O)c3)n2)c2ccncc21", "IC50": "0.4 nM"}
{"ITEM SMILES": "CCCn1cc(-c2ccnc(Nc3ccc(S(N)(=O)=O)cc3)n2)c2nc(Cl)cc(C)c21", "IC50": "> 10000 nM"}
{"ITEM SMILES": "CCCn1cc(-c2ccnc(Nc3ccc(C)c(S(=O)(=O)N4CCOCC4)c3)n2)c2ccncc21", "IC50": "70 nM"}
{"ITEM SMILES": "CCn1cc(-c2ccnc(Nc3ccc(O)cc3)n2)c2ccnc(Cl)c21", "IC50": "190 nM"}

###

experiment: Pharmacokinetic determination, rat IV/PO study; assay type: in vivo; details: male, Sprague-Dawley, plasma, IV (5 mg/kg)

{"ITEM SMILES": "CCn1cc(-c2ccnc(Nc3cccc(S(N)(=O)=O)c3)n2)c2cccnc21", "AUC(0-inf), ng·h/mL": 545}

###

test system: HL-60; assay: 72 h MTT cell viability HL-60; format: cell-based; conditions: Homo sapiens
pIC50: −log10 of the molar value.
Entries and their pIC50 values follow.

{"ITEM SMILES": "CCCn1cc(-c2ccnc(Nc3cccc(S(N)(=O)=O)c3)n2)c2nc(Cl)cc(C)c21", "pIC50": 5.94}
{"ITEM SMILES": "CCCn1cc(-c2ccnc(Nc3cccc(S(N)(=O)=O)c3)n2)c2ccncc21", "pIC50": 8.00}
{"ITEM SMILES": "CCCn1cc(-c2ccnc(Nc3ccc(S(N)(=O)=O)cc3)n2)c2nc(Cl)cc(C)c21", "pIC50": 5.90}
{"ITEM SMILES": "CCn1cc(-c2ccnc(Nc3cccc(S(N)(=O)=O)c3)n2)c2cccnc21", "pIC50": 5.73}

###

biological target: Aurora B (Homo sapiens); assay: Kinase assay Aurora B (Table I); type: biochemical; conditions: Table III; read-out: Target biochemical activity IC50 Aurora B
Sequence (Q96GD4 whole entry): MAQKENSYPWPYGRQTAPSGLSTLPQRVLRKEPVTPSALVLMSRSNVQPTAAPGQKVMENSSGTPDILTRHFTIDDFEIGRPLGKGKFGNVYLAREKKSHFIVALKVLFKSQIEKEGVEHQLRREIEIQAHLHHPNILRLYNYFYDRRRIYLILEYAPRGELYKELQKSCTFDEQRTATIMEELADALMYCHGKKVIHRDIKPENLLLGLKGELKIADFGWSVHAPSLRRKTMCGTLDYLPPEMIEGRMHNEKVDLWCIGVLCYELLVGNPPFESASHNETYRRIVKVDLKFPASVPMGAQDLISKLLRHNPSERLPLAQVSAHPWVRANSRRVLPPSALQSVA

{"ITEM SMILES": "CCCn1cc(-c2ccnc(Nc3cccc(S(N)(=O)=O)c3)n2)c2nc(Cl)cc(C)c21", "EXPERIMENTAL SYSTEM": "Aurora B (Homo sapiens)", "CMP": "=", "IC50 [nM]": 190}
{"ITEM SMILES": "CCCn1cc(-c2ccnc(Nc3cccc(S(N)(=O)=O)c3)n2)c2ccncc21", "EXPERIMENTAL SYSTEM": "Aurora B (Homo sapiens)", "CMP": "=", "IC50 [nM]": 59}
{"ITEM SMILES": "CCn1cc(-c2ccnc(Nc3cccc(S(N)(=O)=O)c3)n2)c2cccnc21", "EXPERIMENTAL SYSTEM": "Aurora B (Homo sapiens)", "CMP": "=", "IC50 [nM]": 700}
{"ITEM SMILES": "CCn1cc(-c2ccnc(Nc3ccc(O)cc3)n2)c2ccnc(Cl)c21", "EXPERIMENTAL SYSTEM": "Aurora B (Homo sapiens)", "CMP": ">", "IC50 [nM]": 10000}
{"ITEM SMILES": "CCCn1cc(-c2ccnc(Nc3ccc(C)c(S(=O)(=O)N4CCOCC4)c3)n2)c2ccncc21", "EXPERIMENTAL SYSTEM": "Aurora B (Homo sapiens)", "CMP": "=", "IC50 [nM]": 1000}
{"ITEM SMILES": "CCCn1cc(-c2ccnc(Nc3ccc(S(N)(=O)=O)cc3)n2)c2nc(Cl)cc(C)c21", "EXPERIMENTAL SYSTEM": "Aurora B (Homo sapiens)", "CMP": "=", "IC50 [nM]": 320}
